assay.comment: HepG2 cytotoxicity, primary screen, cytotoxicity control for P. falciparum antimalarial project, cell-based, ATP luminescence (AID 2303);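 note: 0% = DMSO wells and 100% = digitonin-killed cells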
condition.parameters: HepG2 viability, 24-48 h, at 10 µM
The source made the active and inactive calls.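 Rule for the calls: active = inhibition above 50%; inactive = the rest.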
Labels: true (1) = active, false (0) = inactive

INSERT INTO results (molecule, class) VALUES
  ('CC(Cc1ccc(NC(=O)c2ccc(CC(C)NCc3ccc(Cl)c(Cl)c3)cc2)cc1)NCCc1cccc(Cl)c1 (centres undefined)', 'false (0)'),
  ('COc1ccc(Nc2ncc3c(-c4cccc(NC(=O)Cc5ccncc5)c4)c[nH]c3n2)cc1OC', 'false (0)'),
  ('CC[C@H](C)CNC(=O)c1cncc(-c2cccc(CN3CCC(N4CCCC4)CC3)c2)c1', 'false (0)'),
  ('COc1ccc(CCNCc2cc3c(C(C)(C)C)nn(-c4ccc(Cl)cc4)c3[nH]c2=O)cc1OC', 'false (0)'),
  ('COc1cccc(Nc2nc(NCCO)c3ccccc3n2)c1', 'false (0)'),
  ('COc1ccc2nccc([C@@H](O)CN3CCC(NC(=O)COc4nc(SCc5ccc(F)cc5)nc5c4CCC5)CC3)c2c1', 'false (0)'),
  ('CN(C)CCCc1cc2c(cc1Cl)CCN2C(=O)Nc1ccc(-c2ccncc2)c2ccccc12', 'false (0)'),
  ('O=C(NCC(CCN1CCC(c2c[nH]c3ccccc23)CC1)c1ccccc1)Nc1ccc(Cl)c(Cl)c1 (centres undefined)', 'false (0)'),
  ('COc1c(CNCCCCCCNCc2c(OC)c(OC)c3ccccc3c2OC)c(OC)c2ccccc2c1OC', 'true (1)'),
  ('Cc1cccc(Cl)c1S(=O)(=O)Nc1cccc(CCN2CCC(N3CCCCC3)CC2)c1', 'false (0)'),
  ('Cc1cc(C)c2[nH]cc(C(=O)O)c(=O)c2c1', 'false (0)'),
  ('COc1ccc2ncc(F)c(CCN3CC[C@@H](CNCc4ccc5c(c4C)OCCO5)C3)c2n1', 'false (0)'),
  ('O=C(/C=C/c1ccc(Cl)c(Cl)c1)NCCCCCN1CCC(NC(=O)Nc2ccc(Br)cc2)CC1', 'false (0)'),
  ('O=C(Nc1ccc(F)c(Cl)c1)NC1CCN(c2ccnc3cc(Cl)ccc23)C1 (centres undefined)', 'false (0)'),
  ('CC(C)c1ccc(-c2nc3ncc(Cl)cc3[nH]2)cc1', 'false (0)'),
  ('COc1ccc(CNC2Cc3ccccc3C2)cc1-c1ccc(S(=O)(=O)NCCc2ccccn2)s1', 'false (0)'),
  ('CN(CCNCc1ccc(-c2cccc(-c3nc4ccccc4[nH]3)c2)cc1)S(C)(=O)=O', 'false (0)'),
  ('COc1cc2c(cc1OC)CN(CCCCNC(=O)c1ccc(NC(=O)c3cc(Cl)cc(Cl)c3)cc1)CC2', 'false (0)'),
  ('Clc1cc2c(Nc3ccc(Oc4ccccc4)cc3)ccnc2cc1-c1ccc(CNCCN2CCOCC2)o1', 'false (0)');

----------
measurement.target: L-lactate dehydrogenase (Plasmodium falciparum (isolate CDC / Honduras))
assay.comment: PfLDH activity inhibition – cell lysate, 3D7 strain, counter-screen for P. falciparum growth inhibition project (AID 2304);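 note: 0% = vehicle and 100% = reference inhibitor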
condition.parameters: P. falciparum 3D7 crude extract, LDH APAD/NBT absorbance; at 2 µM; hits give high values
# Lookup of reported inhibition keyed by entry
measured.endpoint: inhibition (%)

INSERT INTO results (molecule, measurement_target, observed_value) VALUES
  ('CCCCN1C(=O)C(c2ccccc2)(c2ccccc2)N=C1N', 'L-lactate dehydrogenase (Plasmodium falciparum (isolate CDC / Honduras))', 7),
  ('O=S(=O)(NCCN1CCCC1)c1ccc(-c2cccc(CNCc3ccsc3)c2)s1', 'L-lactate dehydrogenase (Plasmodium falciparum (isolate CDC / Honduras))', 0),
  ('O=C(NCc1ccc(F)cc1)Nc1ccc(-c2cccc(-c3nc4ccc(C(F)(F)F)cc4[nH]3)c2)cc1', 'L-lactate dehydrogenase (Plasmodium falciparum (isolate CDC / Honduras))', 3),
  ('Cc1cc(N[C@@H](Cc2ccccc2)C(=O)NCCOc2ccccc2)nc(NCc2ccccc2C)n1', 'L-lactate dehydrogenase (Plasmodium falciparum (isolate CDC / Honduras))', -3),
  ('COc1cccc(Nc2nc(C)cc(NCc3ccc(-n4ccnc4)cc3)n2)c1', 'L-lactate dehydrogenase (Plasmodium falciparum (isolate CDC / Honduras))', -5),
  ('COc1ccc(NC(=O)[C@H](CC(C)C)Nc2ccnc(Nc3ccccc3)n2)cc1', 'L-lactate dehydrogenase (Plasmodium falciparum (isolate CDC / Honduras))', 3),
  ('COc1ccc2nc3ccccc3c(NCCN3CCN(C)CC3)c2c1', 'L-lactate dehydrogenase (Plasmodium falciparum (isolate CDC / Honduras))', 1),
  ('O=C(/C=C/c1ccc(Cl)c(Cl)c1)NCCCCCN1CCC(c2[nH]nc(-c3ccccc3)c2Br)CC1', 'L-lactate dehydrogenase (Plasmodium falciparum (isolate CDC / Honduras))', 1),
  ('NC1=NC(c2ccccc2)(c2ccccc2)C(=O)N1CCOc1ccccc1', 'L-lactate dehydrogenase (Plasmodium falciparum (isolate CDC / Honduras))', 0),
  ('COCCOC(=O)C(=O)c1c(-c2ccccc2)c(-c2ccc(OC)c(OC)c2)c2c3cc(OC)c(OC)cc3ccn12', 'L-lactate dehydrogenase (Plasmodium falciparum (isolate CDC / Honduras))', -2),
  ('CCCCCCN1CCC(NCc2ccc(CN(C)C)cc2)CC1', 'L-lactate dehydrogenase (Plasmodium falciparum (isolate CDC / Honduras))', 1),
  ('CCOc1cc(C(=O)NCCCN2CCCCC2C)ccc1-c1nc2ccc(Cl)cc2[nH]1 (stereo not given)', 'L-lactate dehydrogenase (Plasmodium falciparum (isolate CDC / Honduras))', -2),
  ('O=C(Nc1cccc(-c2cccc(-c3nc4ccc(C(F)(F)F)cc4[nH]3)c2)c1)c1cccnc1', 'L-lactate dehydrogenase (Plasmodium falciparum (isolate CDC / Honduras))', -6),
  ('O=C(/C=C/c1cccs1)NCC(NCCCNc1cc(=O)c2ccccc2[nH]1)c1cc(Br)cc(Br)c1 (stereo not given)', 'L-lactate dehydrogenase (Plasmodium falciparum (isolate CDC / Honduras))', 0),
  ('Clc1ccccc1OCc1ccccn1', 'L-lactate dehydrogenase (Plasmodium falciparum (isolate CDC / Honduras))', -3),
  ('CC(C)COc1ccc(Cl)cc1Cc1ccc(-c2nc3ccc(F)cc3[nH]2)o1', 'L-lactate dehydrogenase (Plasmodium falciparum (isolate CDC / Honduras))', 6),
  ('Cc1ccc(CNC(=O)[C@H](CC(C)C)Nc2cc(C)nc(NCc3ccccc3C)n2)cc1', 'L-lactate dehydrogenase (Plasmodium falciparum (isolate CDC / Honduras))', 1),
  ('CNCc1ccc(CN(C)c2nc(N)c3cc(OC)c(OC)cc3n2)cc1', 'L-lactate dehydrogenase (Plasmodium falciparum (isolate CDC / Honduras))', 5),
  ('Cc1cccc2[nH]c(-c3ccc(-c4ccc(CNCC5CCCO5)cc4)s3)nc12 (stereo not given)', 'L-lactate dehydrogenase (Plasmodium falciparum (isolate CDC / Honduras))', -5),
  ('COc1cccc2c1CCN(CCN1CCC(CNC(=O)c3ccc(-c4ccc(C#N)cc4)cc3)CC1)C2', 'L-lactate dehydrogenase (Plasmodium falciparum (isolate CDC / Honduras))', 6),
  ('Cc1ccc2c(NN=Cc3ccc(Cl)cc3)cc(C)nc2c1', 'L-lactate dehydrogenase (Plasmodium falciparum (isolate CDC / Honduras))', -2),
  ('O=C(Nc1cccc(-c2cccc(-c3nc4ccc(F)cc4[nH]3)c2)c1)Nc1ccc(F)c(F)c1F', 'L-lactate dehydrogenase (Plasmodium falciparum (isolate CDC / Honduras))', 4),
  ('Cc1ccc2nc(-c3ccc(C(=O)NC4CCN(Cc5ccccc5)CC4)s3)[nH]c2c1', 'L-lactate dehydrogenase (Plasmodium falciparum (isolate CDC / Honduras))', -5),
  ('O=C(c1c(-c2[nH]c3ccccc3c2C(=O)C(F)(F)F)[nH]c2ccccc12)C(F)(F)F', 'L-lactate dehydrogenase (Plasmodium falciparum (isolate CDC / Honduras))', 3),
  ('N#CCOc1c(C2CCN(CCCCNC(=O)c3ccc(-c4ccc(C(F)(F)F)cc4)cc3)CC2)ccc2c1CCCC2', 'L-lactate dehydrogenase (Plasmodium falciparum (isolate CDC / Honduras))', 4),
  ('Cc1ccc(O)cc1Nc1ccnc2cc(-c3csc(CN4CCN(C)CC4)n3)ccc12', 'L-lactate dehydrogenase (Plasmodium falciparum (isolate CDC / Honduras))', -4),
  ('N#Cc1ccc2[nH]cc(C(=O)CCCCCN(Cc3ccccc3)Cc3ccccc3)c2c1', 'L-lactate dehydrogenase (Plasmodium falciparum (isolate CDC / Honduras))', 2),
  ('NC(=Nc1nc(-c2ccccn2)cc2ccccc12)c1cccc(Cl)c1', 'L-lactate dehydrogenase (Plasmodium falciparum (isolate CDC / Honduras))', 0),
  ('O=c1cc(NCCCN(Cc2ccccc2)Cc2ccccc2)[nH]c2ccccc12', 'L-lactate dehydrogenase (Plasmodium falciparum (isolate CDC / Honduras))', -3),
  ('Cc1cc(-c2ccc(NC(=O)N3CCc4cc(Br)c(N5CCN(C)CC5)cc43)cc2)ccc1C#N', 'L-lactate dehydrogenase (Plasmodium falciparum (isolate CDC / Honduras))', 0),
  ('CNC(=O)C1Cc2c([nH]c3cc(Br)ccc23)C2(CCN(CCc3ccccc3)CC2)N1 (stereo not given)', 'L-lactate dehydrogenase (Plasmodium falciparum (isolate CDC / Honduras))', -8),
  ('CN1CCC(C(=O)Nc2ccc(-c3ccc(-c4nc5ccccc5[nH]4)cc3)cc2)CC1', 'L-lactate dehydrogenase (Plasmodium falciparum (isolate CDC / Honduras))', 5),
  ('C(=N\Nc1nccc2sc(-c3cccnc3)cc12)/c1cccnc1', 'L-lactate dehydrogenase (Plasmodium falciparum (isolate CDC / Honduras))', 5),
  ('O=C(Oc1ccc(Cl)cc1C(=O)Nc1ccc([N+](=O)[O-])cc1Cl)c1ccccc1', 'L-lactate dehydrogenase (Plasmodium falciparum (isolate CDC / Honduras))', 3),
  ('CC(C)N1CCN(c2ccc(OCCCCN3CCN(c4cccc(Cl)c4Cl)CC3)cc2Cl)CC1', 'L-lactate dehydrogenase (Plasmodium falciparum (isolate CDC / Honduras))', -1),
  ('CCCCNc1cc(NCCCC)c2c(n1)[nH]c1ccccc12', 'L-lactate dehydrogenase (Plasmodium falciparum (isolate CDC / Honduras))', -1),
  ('O=C(Nc1ccccc1F)N(CCCn1ccnc1)Cc1csc(-c2ccc(CNCc3ccccc3)cc2)n1', 'L-lactate dehydrogenase (Plasmodium falciparum (isolate CDC / Honduras))', 2),
  ('O=C1CCCC1Sc1nc2ccccc2c(=O)n1-c1ccc(Cl)c(Cl)c1 (stereo not given)', 'L-lactate dehydrogenase (Plasmodium falciparum (isolate CDC / Honduras))', 0),
  ('Cc1cccc2[nH]c(-c3cccc(-c4cccc(NC(=O)c5cccnc5)c4)c3)nc12', 'L-lactate dehydrogenase (Plasmodium falciparum (isolate CDC / Honduras))', -5),
  ('COc1cc2nc(NCCc3ccccc3)nc(NCc3nccs3)c2cc1OC', 'L-lactate dehydrogenase (Plasmodium falciparum (isolate CDC / Honduras))', 0);
